meta.source: ChEMBL document CHEMBL4152374

- System: HCT-15
- Procedure text: Antiproliferative activity against human HCT15 cells after 72 hrs by EZ-CYTOX reagent based assay
- Assay type: functional, cell-based
- Experimental context: HCT-15, 72 h
Observable: IC50 (µM)
A number alone suffices; assume µM.

According to the records, this compound Oc1ccc(-c2cc(-c3cccc(O)c3)c3c(n2)-c2ccccc2C3O)cc1 (centres undefined) displays IC50 of 9.76

According to the records, this compound O=C1c2ccccc2-c2nc(-c3ccc(O)cc3)cc(-c3ccccc3)c21 displays IC50 of 2.18

According to the records, this compound O=C1c2ccccc2-c2nc(-c3ccc(O)cc3)cc(-c3cccc(O)c3)c21 displays IC50 of 1.96

According to the records, this compound O=C1c2ccccc2-c2nc(-c3ccccc3O)cc(-c3cccc(O)c3)c21 displays IC50 of 6.09

* * *

- Test system: HCT-15
- Procedure text: Antiproliferative activity against human HCT15 cells after 72 hrs by EZ-CYTOX reagent based assay
- Assay type: functional, cell-based
- Experimental context: HCT-15, 72 h
Observable: IC50

According to the records, this compound O=C1c2ccccc2-c2nc(-c3cccc(O)c3)cc(-c3cccc(O)c3)c21 displays IC50 of > 50000 nM

According to the records, this compound O=C1c2ccccc2-c2nc(-c3ccccc3)cc(-c3ccccc3)c21 displays IC50 of > 50000 nM

According to the records, this compound O=C1c2ccccc2-c2nc(-c3cccc(O)c3)cc(-c3ccccc3O)c21 displays IC50 of 1360 nM

According to the records, this compound O=C1c2ccccc2-c2nc(-c3ccc(O)cc3)cc(-c3ccccc3O)c21 displays IC50 of 2820 nM

According to the records, this compound CC[C@@]1(O)C(=O)OCc2c1cc1n(c2=O)Cc2cc3ccccc3nc2-1 displays IC50 of 50 nM

* * *

- Assayed target: DNA topoisomerase 2-alpha (Homo sapiens) (UniProt P11388)
- Sequence (P11388 whole entry): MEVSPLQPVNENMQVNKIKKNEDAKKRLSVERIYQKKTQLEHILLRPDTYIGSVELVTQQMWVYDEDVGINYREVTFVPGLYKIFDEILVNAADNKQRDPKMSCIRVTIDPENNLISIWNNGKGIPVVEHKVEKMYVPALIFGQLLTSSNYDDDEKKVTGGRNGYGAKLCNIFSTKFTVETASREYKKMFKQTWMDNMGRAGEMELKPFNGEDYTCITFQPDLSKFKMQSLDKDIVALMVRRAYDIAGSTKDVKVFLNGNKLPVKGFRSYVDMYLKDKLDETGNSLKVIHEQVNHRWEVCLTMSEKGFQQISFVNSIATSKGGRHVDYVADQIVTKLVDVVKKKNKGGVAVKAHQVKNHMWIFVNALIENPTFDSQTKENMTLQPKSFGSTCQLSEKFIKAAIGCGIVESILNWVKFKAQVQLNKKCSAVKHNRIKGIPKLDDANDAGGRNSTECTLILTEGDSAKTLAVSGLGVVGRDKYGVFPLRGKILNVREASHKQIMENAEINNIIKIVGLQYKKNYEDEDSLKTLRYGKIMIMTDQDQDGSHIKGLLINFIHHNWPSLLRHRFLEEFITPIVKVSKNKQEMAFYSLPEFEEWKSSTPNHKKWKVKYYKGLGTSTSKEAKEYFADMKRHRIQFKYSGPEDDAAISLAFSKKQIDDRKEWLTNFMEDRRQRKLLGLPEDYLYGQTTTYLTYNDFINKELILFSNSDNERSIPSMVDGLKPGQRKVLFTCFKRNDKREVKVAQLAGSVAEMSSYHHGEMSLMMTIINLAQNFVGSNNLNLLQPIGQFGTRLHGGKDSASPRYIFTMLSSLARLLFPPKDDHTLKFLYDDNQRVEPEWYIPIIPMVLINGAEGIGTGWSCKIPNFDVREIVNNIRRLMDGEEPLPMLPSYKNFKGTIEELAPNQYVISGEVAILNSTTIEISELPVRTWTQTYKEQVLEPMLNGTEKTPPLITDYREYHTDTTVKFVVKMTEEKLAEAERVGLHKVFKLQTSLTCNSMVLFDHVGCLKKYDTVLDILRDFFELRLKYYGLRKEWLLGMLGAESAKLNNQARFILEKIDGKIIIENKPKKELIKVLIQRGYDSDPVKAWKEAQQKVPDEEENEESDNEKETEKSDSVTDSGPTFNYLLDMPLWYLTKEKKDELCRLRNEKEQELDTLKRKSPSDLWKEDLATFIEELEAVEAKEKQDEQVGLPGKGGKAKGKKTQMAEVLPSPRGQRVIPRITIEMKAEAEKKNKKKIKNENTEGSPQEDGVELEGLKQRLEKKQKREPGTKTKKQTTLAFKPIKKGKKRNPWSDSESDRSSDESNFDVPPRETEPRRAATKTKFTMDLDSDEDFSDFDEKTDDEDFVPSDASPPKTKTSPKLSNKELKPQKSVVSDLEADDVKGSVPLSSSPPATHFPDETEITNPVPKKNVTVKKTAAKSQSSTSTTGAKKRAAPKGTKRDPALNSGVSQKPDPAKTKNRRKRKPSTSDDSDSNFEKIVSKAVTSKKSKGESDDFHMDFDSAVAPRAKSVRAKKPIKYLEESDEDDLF
- Procedure text: Inhibition of human topoisomerase 2-alpha using supercoiled pBR322 plasmid DNA as substrate at 20 uM after 30 mins by agarose gel electrophoresis method relative to etoposide
Observable: fold change (FC)

According to the records, this compound O=C1c2ccccc2-c2nc(-c3cccc(O)c3)cc(-c3ccc(O)cc3)c21 displays fold change (FC) of 1.88 to 1.89

According to the records, this compound O=C1c2ccccc2-c2nc(-c3cccc(O)c3)cc(-c3cccc(O)c3)c21 displays fold change (FC) of 0.47

According to the records, this compound O=C1c2ccccc2-c2nc(-c3ccc(O)cc3)cc(-c3ccccc3O)c21 displays fold change (FC) of 0.27

* * *

- Assayed target: UniProt P11388
- Procedure text: Inhibition of human topoisomerase 2-alpha using supercoiled pBR322 plasmid DNA as substrate at 100 uM after 30 mins by agarose gel electrophoresis method relative to etoposide
Observable: fold change (FC)

According to the records, this compound O=C1c2ccccc2-c2nc(-c3ccccc3)cc(-c3ccccc3O)c21 displays fold change (FC) of 0.32

According to the records, this compound O=C1c2ccccc2-c2nc(-c3ccc(O)cc3)cc(-c3cccc(O)c3)c21 displays fold change (FC) of 1.02

According to the records, this compound O=C1c2ccccc2-c2nc(-c3ccc(O)cc3)cc(-c3ccccc3)c21 displays fold change (FC) of 0.31

According to the records, this compound O=C1c2ccccc2-c2nc(-c3cccc(O)c3)cc(-c3ccccc3O)c21 displays fold change (FC) of 0.03

According to the records, this compound O=C1c2ccccc2-c2nc(-c3ccccc3O)cc(-c3ccccc3O)c21 displays fold change (FC) of 0.44

According to the records, this compound O=C1c2ccccc2-c2nc(-c3ccccc3O)cc(-c3ccccc3)c21 displays fold change (FC) of 0.06

According to the records, this compound O=C1c2ccccc2-c2nc(-c3ccccc3O)cc(-c3ccc(O)cc3)c21 displays fold change (FC) of 0.07

According to the records, this compound O=C1c2ccccc2-c2nc(-c3cccc(O)c3)cc(-c3cccc(O)c3)c21 displays fold change (FC) of 0.98

According to the records, this compound O=C1c2ccccc2-c2nc(-c3ccc(O)cc3)cc(-c3ccc(O)cc3)c21 displays fold change (FC) of 1.33 to 1.42

According to the records, this compound O=C1c2ccccc2-c2nc(-c3ccc(O)cc3)cc(-c3ccccc3O)c21 displays fold change (FC) of 1.04
